assay: qHTS assay to identify small molecule agonists of the estrogen related receptor signaling pathway with the pleiotropic PPARgamma coactivator (PGC) (AID 1224823); conditions: ERR/PGC reporter cell line, luciferase agonist mode; series mostly up to 46.1 µM
Inconclusive results are not listed. The source made the active and inactive calls. Calls follow the shape of the dose curve; as a rule, active = well fitted activation curve with a large enough effect in the repeat runs; inconclusive = weak or mixed curves; inactive = no such curve, though single readings can be large or run the other way.
The categories you may choose from are 1.0 for active, 0.0 for inactive

>>> qualitative_label("CC(=O)/C=C1\\C(=O)N(C)c2ccccc21")
0.0
>>> qualitative_label("Nc1nc(Nc2ccccc2)nc2c1ncn2[C@@H]1O[C@H](CO)C(O)[C@H]1O (stereo partly specified)")
1.0
>>> qualitative_label("Nc1ccc(N2C(=O)c3ccccc3C2=O)c(Cl)c1")
0.0
>>> qualitative_label("CC(N)(C(=O)O)c1ccc(C(=O)O)cc1 (stereo unspecified)")
0.0
>>> qualitative_label("CCCN(CCc1ccccc1)C1CCc2c(O)cccc2C1 (stereo unspecified)")
0.0
>>> qualitative_label("COC(=O)C1=CO[C@@H](O)[C@@H]2C(CO)=CC[C@H]12")
0.0
>>> qualitative_label("CS(=O)(=O)c1cccc(CNc2nc(Nc3ccc4c(c3)CCC(=O)N4)ncc2C(F)(F)F)c1")
0.0
>>> qualitative_label("COc1cccc(C(=O)NCCN2CCN(c3ccc(Cl)cc3)CC2)c1")
0.0

Q: // return assay outcome for CSc1nc(N)c2ncn([C@@H]3O[C@H](COP(=O)(O)OP(=O)(O)O)C(O)[C@H]3O)c2n1 (stereo partly specified)
Result: 0.0

Q: // return assay outcome for "CCN(c1nc(N)c(C(=O)N=C(N)N)nc1Cl)C(C)C"
Result: 0.0

Q: // return assay outcome for "Cn1c(=O)c2[nH]c(-c3ccccc3)nc2n(C)c1=O"
Result: 0.0

Reference source: PubChem BioAssay (Tox21)
